B1: MNAT1 (parent)
chain: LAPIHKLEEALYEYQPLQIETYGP

# Variants of: B1
# experimental protocol: protein stability index of a GFP-peptide fusion (GPS, HEK-293T) (PSI 1-6); higher = more stable;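 further: lentivirally expressed fusions sorted by FACS into six bins by GFP to DsRed ratio, PSI derived from sequencing read proportions per bin multiplied by bin number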
# condition context: c terminus: a fixed tail appended
Measured protein stability index, listed per entry for reference.
Kindly provide the number alone.

Would you please look over these solved cases?
- variant annotation: "H5G"
  protein stability index: 1.96
- variant annotation: "T21R"
  protein stability index: 2.09
- variant annotation: "Y14C"
  protein stability index: 2.54
- variant annotation: "Y22R"
  protein stability index: 1.73
- variant annotation: "E13Q"
  protein stability index: 1.43
- variant annotation: "H5K"
  protein stability index: 2.62
- variant annotation: "G23W"
  protein stability index: 1.14
- variant annotation: "Y22S"
  protein stability index: 2.4
- variant annotation: "A2R"
  protein stability index: 1.62
- variant annotation: "E9F"
  protein stability index: 2.25

The record that follows has no protein stability index shown yet.
Q: Give the measured protein stability index for Y14M
A: 2.42
